# Tested on: mice bearing PSMA-expressing LNCAP cancer xenografts
# PROTOCOL: Biodistribution of 68Ga-labeled compounds
# Assay type: in vivo
# MEASUREMENT SETUP: 1 h post-injection
PROPERTY NAME: Kidneys uptake (% ID/g)
Report only the number, with the unit % ID/g understood.

COMPOUND | Kidneys uptake / % ID/g
O=C([O-])CN1CCN(CC(=O)[O-])CCN(CC(=O)NCCCC[C@H](NC(=O)CNC(=O)CCCc2ccc(F)cc2)C(=O)NC[C@H]2CC[C@H](C(=O)N[C@@H](Cc3ccc4ccccc4c3)C(=O)NCCCC[C@H](NC(=O)N[C@@H](CCC(=O)O)C(=O)O)C(=O)O)CC2)CCN(CC(=O)[O-])CC1.[68Ga+3] [^68Ga-HTK03085] | 85.8
O=C([O-])CN1CCN(CC(=O)[O-])CCN(CC(=O)NCC2CCC(C(=O)NC(Cc3ccc4cc5ccccc5cc4c3)C(=O)NCCCCC(NC(=O)NC(CCC(=O)O)C(=O)O)C(=O)O)CC2)CCN(CC(=O)[O-])CC1.[68Ga+3] (stereo not shown) [^68Ga-HTK03027] | 85.6
O=C([O-])CN1CCN(CC(=O)[O-])CCN(CC(=O)NCCCC[C@H](NC(=O)CNC(=O)CCCc2ccccc2)C(=O)NC[C@H]2CC[C@H](C(=O)N[C@@H](Cc3ccc4ccccc4c3)C(=O)NCCCC[C@H](NC(=O)N[C@@H](CCC(=O)O)C(=O)O)C(=O)O)CC2)CCN(CC(=O)[O-])CC1.[68Ga+3] [^68Ga-HTK03056] | 123
O=C([O-])CN1CCN(CC(=O)[O-])CCN(CC(=O)NCCCC[C@H](NC(=O)CNC(=O)CCCc2ccc(Br)cc2)C(=O)NC[C@H]2CC[C@H](C(=O)N[C@@H](Cc3ccc4ccccc4c3)C(=O)NCCCC[C@H](NC(=O)N[C@@H](CCC(=O)O)C(=O)O)C(=O)O)CC2)CCN(CC(=O)[O-])CC1.[68Ga+3] [^68Ga-HTK03058] | 14.7

Ask: For the compound O=C([O-])CN1CCN(CC(=O)[O-])CCN(CC(=O)NCCCC[C@H](NC(=O)CNC(=O)CCCc2ccc([N+](=O)[O-])cc2)C(=O)NC[C@H]2CC[C@H](C(=O)N[C@@H](Cc3ccc4ccccc4c3)C(=O)NCCCC[C@H](NC(=O)N[C@@H](CCC(=O)O)C(=O)O)C(=O)O)CC2)CCN(CC(=O)[O-])CC1.[68Ga+3] [^68Ga-HTK03089] , give its reported Kidneys uptake.
Reply: 91.1

Ask: For the compound O=C([O-])CN1CCN(CC(=O)[O-])CCN(CC(=O)NCCCC[C@H](NC(=O)CNC(=O)CCCc2ccc(I)cc2)C(=O)NC[C@H]2CC[C@H](C(=O)N[C@@H](Cc3ccc4ccccc4c3)C(=O)NCCCC[C@H](NC(=O)N[C@@H](CCC(=O)O)C(=O)O)C(=O)O)CC2)CCN(CC(=O)[O-])CC1.[68Ga+3] [^68Ga-HTK03024] , give its reported Kidneys uptake.
Reply: 9.11

Ask: For the compound Nc1ccc(CCCC(=O)NCC(=O)N[C@@H](CCCCNC(=O)CN2CCN(CC(=O)[O-])CCN(CC(=O)[O-])CCN(CC(=O)[O-])CC2)C(=O)NC[C@H]2CC[C@H](C(=O)N[C@@H](Cc3ccc4ccccc4c3)C(=O)NCCCC[C@H](NC(=O)N[C@@H](CCC(=O)O)C(=O)O)C(=O)O)CC2)cc1.[68Ga+3] [^68Ga-HTK03087] , give its reported Kidneys uptake.
Reply: 102

---

# Tested on: mice bearing PSMA-expressing LNCAP cancer xenografts
# PROTOCOL: Biodistribution of 68Ga-labeled compounds
# Type: in vivo
# MEASUREMENT SETUP: 3 h post-injection
# Description: Imaging and biodistribution experiments were performed using NODSCID 1L2RyKO male mice. Mice were anesthetized by inhalation with 2% isoflurane in oxygen, and implanted subcutaneously with 1×10^7 LNCaP cells behind left shoulder. […] For biodistribution studies, the mice were injected with the radiotracer as described above. […] The collected organs/tissues were weighed and counted using an automatic gamma counter. […]
PROPERTY NAME: Blood uptake (% ID/g)
Report only the number, with the unit % ID/g understood.

Look over these answered cases.
COMPOUND | RESULT UNIT | Blood uptake
O=C([O-])CN1CCN(CC(=O)[O-])CCN(CC(=O)NCCCC[C@H](NC(=O)CNC(=O)CCc2ccccc2)C(=O)NC[C@H]2CC[C@H](C(=O)N[C@@H](Cc3ccc4ccccc4c3)C(=O)NCCCC[C@H](NC(=O)N[C@@H](CCC(=O)O)C(=O)O)C(=O)O)CC2)CCN(CC(=O)[O-])CC1.[68Ga+3] [^68Ga-HTK03082] | % ID/g | 0.25
O=C([O-])CN1CCN(CC(=O)[O-])CCN(CC(=O)NCCCC[C@H](NC(=O)CNC(=O)CCCc2ccccc2)C(=O)NC[C@H]2CC[C@H](C(=O)N[C@@H](Cc3ccc4ccccc4c3)C(=O)NCCCC[C@H](NC(=O)N[C@@H](CCC(=O)O)C(=O)O)C(=O)O)CC2)CCN(CC(=O)[O-])CC1.[68Ga+3] [^68Ga-HTK03056] | % ID/g | 1.17
O=C([O-])CN1CCN(CC(=O)[O-])CCN(CC(=O)NCCCC[C@H](NC(=O)CNC(=O)CCCc2ccc(Cl)cc2)C(=O)NC[C@H]2CC[C@H](C(=O)N[C@@H](Cc3ccc4ccccc4c3)C(=O)NCCCC[C@H](NC(=O)N[C@@H](CCC(=O)O)C(=O)O)C(=O)O)CC2)CCN(CC(=O)[O-])CC1.[68Ga+3] [^68Ga-HTK03055] | % ID/g | 17.4
Nc1ccc(CCCC(=O)NCC(=O)N[C@@H](CCCCNC(=O)CN2CCN(CC(=O)[O-])CCN(CC(=O)[O-])CCN(CC(=O)[O-])CC2)C(=O)NC[C@H]2CC[C@H](C(=O)N[C@@H](Cc3ccc4ccccc4c3)C(=O)NCCCC[C@H](NC(=O)N[C@@H](CCC(=O)O)C(=O)O)C(=O)O)CC2)cc1.[68Ga+3] [^68Ga-HTK03087] | % ID/g | 0.52

Attention now shifts to the item below.
Ask: For the compound O=C([O-])CN1CCN(CC(=O)[O-])CCN(CC(=O)NCC2CCC(C(=O)NC(Cc3c4ccccc4cc4ccccc34)C(=O)NCCCCC(NC(=O)NC(CCC(=O)O)C(=O)O)C(=O)O)CC2)CCN(CC(=O)[O-])CC1.[68Ga+3] (centres unmarked) [^68Ga-HTK03041] , give its reported Blood uptake.
Reply: 0.83

---

# Test system: mice bearing PSMA-expressing LNCAP cancer xenografts
# PROTOCOL: Biodistribution of 68Ga-labeled compounds
# Format: in vivo
# MEASUREMENT SETUP: 1 h post-injection
PROPERTY NAME: Seminal uptake
Give the number first and the unit second.

Ask: For the compound O=C([O-])CN1CCN(CC(=O)[O-])CCN(CC(=O)NCCCC[C@H](NC(=O)CNC(=O)CCCc2ccc(Br)cc2)C(=O)NC[C@H]2CC[C@H](C(=O)N[C@@H](Cc3ccc4ccccc4c3)C(=O)NCCCC[C@H](NC(=O)N[C@@H](CCC(=O)O)C(=O)O)C(=O)O)CC2)CCN(CC(=O)[O-])CC1.[68Ga+3] [^68Ga-HTK03058] , give its reported Seminal uptake.
Reply: 1.31 ± 0.38 % ID/g

---

# Tested on: mice bearing PSMA-expressing LNCAP cancer xenografts
# PROTOCOL: Biodistribution of 68Ga-labeled compounds
# Format: in vivo
# MEASUREMENT SETUP: 1 h post-injection
# Protocol: Imaging and biodistribution experiments were performed using NODSCID 1L2RyKO male mice. Mice were anesthetized by inhalation with 2% isoflurane in oxygen, and implanted subcutaneously with 1×10^7 LNCaP cells behind left shoulder. […] For biodistribution studies, the mice were injected with the radiotracer as described above. […] The collected organs/tissues were weighed and counted using an automatic gamma counter. […]
# maps each entry to its Pancreas uptake
Give the number first and the unit second.

Look over these answered cases.
COMPOUND | STUDY TARGET | RESULT
O=C([O-])CN1CCN(CC(=O)[O-])CCN(CC(=O)NCCCC[C@H](NC(=O)CNC(=O)CCCc2ccc(I)cc2)C(=O)NC[C@H]2CC[C@H](C(=O)N[C@@H](Cc3ccc4ccccc4c3)C(=O)NCCCC[C@H](NC(=O)N[C@@H](CCC(=O)O)C(=O)O)C(=O)O)CC2)CCN(CC(=O)[O-])CC1.[68Ga+3] [^68Ga-HTK03024] | mice bearing PSMA-expressing LNCAP cancer xenografts | 1.86 ± 0.04 % ID/g
Cc1ccc(CCCC(=O)NCC(=O)N[C@@H](CCCCNC(=O)CN2CCN(CC(=O)[O-])CCN(CC(=O)[O-])CCN(CC(=O)[O-])CC2)C(=O)NC[C@H]2CC[C@H](C(=O)N[C@@H](Cc3ccc4ccccc4c3)C(=O)NCCCC[C@H](NC(=O)N[C@@H](CCC(=O)O)C(=O)O)C(=O)O)CC2)cc1.[68Ga+3] [^68Ga-HTK03090] | mice bearing PSMA-expressing LNCAP cancer xenografts | 1.36 ± 0.22 % ID/g
O=C([O-])CN1CCN(CC(=O)[O-])CCN(CC(=O)NCCCC[C@H](NC(=O)CNC(=O)CCCc2ccc([N+](=O)[O-])cc2)C(=O)NC[C@H]2CC[C@H](C(=O)N[C@@H](Cc3ccc4ccccc4c3)C(=O)NCCCC[C@H](NC(=O)N[C@@H](CCC(=O)O)C(=O)O)C(=O)O)CC2)CCN(CC(=O)[O-])CC1.[68Ga+3] [^68Ga-HTK03089] | mice bearing PSMA-expressing LNCAP cancer xenografts | 1.00 ± 0.07 % ID/g

Attention now shifts to the item below.
Ask: For the compound O=C([O-])CN1CCN(CC(=O)[O-])CCN(CC(=O)NCC2CCC(C(=O)NC(Cc3c4ccccc4cc4ccccc34)C(=O)NCCCCC(NC(=O)NC(CCC(=O)O)C(=O)O)C(=O)O)CC2)CCN(CC(=O)[O-])CC1.[68Ga+3] (stereo not shown) [^68Ga-HTK03041] , give its reported Pancreas uptake.
Reply: 1.47 ± 0.16 % ID/g
